# Tested on: Zea mays (ZEAMX)
# Assay Notes: Post-emergence crop plant compatibility, greenhouse pot test
# Type: in vivo
# Test Context: 1.25 g/ha, vs untreated controls
Property Name: Post-emergence action against ZEAMX (crop plant compatibility)

Study these solved cases before continuing.
Compound	Measurement Target	Measured
COCCCOC(=O)COc1ccccc1Sc1cc(-n2c(=O)cc(C(F)(F)F)n(C)c2=O)c(F)cc1Cl	Zea mays (ZEAMX)	10%
CC(Oc1ccccc1Sc1cc(-n2c(=O)cc(C(F)(F)F)n(C)c2=O)c(F)cc1Cl)C(=O)OCCO (racemic)	Zea mays (ZEAMX)	10%
Cn1c(C(F)(F)F)cc(=O)n(-c2cc(Oc3ccccc3OCC(=O)OC3COC3)c(Cl)cc2F)c1=O	Zea mays (ZEAMX)	20%
COCCOC(=O)COc1ccccc1Oc1cc(-n2c(=O)cc(C(F)(F)F)n(C)c2=O)c(F)cc1C#N	Zea mays (ZEAMX)	10%
Cn1c(C(F)(F)F)cc(=O)n(-c2cc(Oc3ccccc3OCC(=O)OCC[N+](=O)[O-])c([N+](=O)[O-])cc2F)c1=O	Zea mays (ZEAMX)	20%

Look at this compound and give its reported Post-emergence action against ZEAMX (crop plant compatibility). Cn1c(C(F)(F)F)cc(=O)n(-c2cc(Oc3ccccc3OCC(=O)OCc3ccccn3)c(Br)cc2F)c1=O
20%

Look at this compound and give its reported Post-emergence action against ZEAMX (crop plant compatibility). COCCOC(=O)COc1ccccc1Sc1cc(-n2c(=O)cc(C(F)(F)F)n(C)c2=O)c(F)cc1Cl
20%
